src = patent US20080267971A1

target-of-assay: T1, human Angiopoietin-2 (human, UniProt O15123 19-496)
T1 construct: Mostly bought recombinant protein (R&D Systems 623-AM/CF, 623-AN; biotinylated BT623) or supernatant of transfected 293F cells; also called Ang-2; rhAng-2
T1 sequence: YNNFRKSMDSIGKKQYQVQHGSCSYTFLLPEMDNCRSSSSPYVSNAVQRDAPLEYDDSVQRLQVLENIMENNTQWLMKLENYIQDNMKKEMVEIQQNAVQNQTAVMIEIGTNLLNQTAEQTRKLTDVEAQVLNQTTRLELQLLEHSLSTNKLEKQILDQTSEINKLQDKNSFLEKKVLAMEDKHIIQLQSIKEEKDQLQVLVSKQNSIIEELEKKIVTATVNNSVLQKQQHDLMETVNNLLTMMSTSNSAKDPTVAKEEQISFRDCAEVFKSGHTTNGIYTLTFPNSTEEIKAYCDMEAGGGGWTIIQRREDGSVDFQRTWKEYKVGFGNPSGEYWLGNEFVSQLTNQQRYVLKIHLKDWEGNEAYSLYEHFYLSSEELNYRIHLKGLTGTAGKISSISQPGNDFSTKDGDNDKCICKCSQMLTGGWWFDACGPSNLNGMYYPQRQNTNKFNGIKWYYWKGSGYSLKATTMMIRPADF
experiment-summary: Biacore, mAb captured
result-type: Kd

[[record]]
binder = "mAb 3.19.3 (antibody, V domains shown, Human hybridoma IgG (XenoMouse); also called x3.19) VH: QVQLVESGGGVVQPGRSLRLSCAASGFTFTNYGMHWGRQAPGKGLEWVAVISHDGNNKYYVDSVKGRFTISRDNSKNTLYLQMNSLRAEDTAVYYCAREGIDFWSGLNWFDPWGQGTLVTVSS VL: EIVLTQSPGTLSLSPGERATLSCRASQSITGSYLAWYQQKPGQAPRLLICGASSWATGIPDRFSGSGSGTDFTLTISRLEPEDFAVYYCQQYSSSPITFGQGTRLEIKR"
reported_value = "≤ 111 pM"

[[record]]
binder = "mAb 5.35.1 (antibody, V domains shown, Human hybridoma IgG (XenoMouse); also called x5.35) VH: EVQLVESGGGVVRPGGSLRLSCTTSGFTFDDYGMSWVRQAPGKGLEWVSGINWNGGSTVYADSVKGRFTISRDSAKNSLYLQMNSLRAEDTALYHCARNKQWLWYFDLWGRGTLVTVSS VL: EIVMTQSPATLSVSPGERATLSCRASQSVSSNLAWYQQKPGQAPRLLIYGASTRATGIPARFSGSGSGTEFTLTISSLQSEDFAVYYCEQYNNWPLTFGGGTKVEIKR"
reported_value = "≤ 29 pM"

[[record]]
binder = "mAb 3.3.2 (antibody, V domains shown, Human hybridoma IgG (XenoMouse); also called 3.3.1; x3.3) VH: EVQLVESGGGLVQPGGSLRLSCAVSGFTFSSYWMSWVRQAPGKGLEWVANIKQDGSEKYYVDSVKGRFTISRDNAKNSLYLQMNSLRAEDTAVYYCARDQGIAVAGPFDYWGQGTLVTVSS VL: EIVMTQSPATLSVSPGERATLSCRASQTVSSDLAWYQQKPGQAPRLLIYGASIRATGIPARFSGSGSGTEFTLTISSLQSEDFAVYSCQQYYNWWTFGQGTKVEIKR"
reported_value = "≤ 33 pM"

[[record]]
binder = "mAb 5.62.1 (antibody, V domains shown, Human hybridoma IgG (XenoMouse); also called x5.62) VH: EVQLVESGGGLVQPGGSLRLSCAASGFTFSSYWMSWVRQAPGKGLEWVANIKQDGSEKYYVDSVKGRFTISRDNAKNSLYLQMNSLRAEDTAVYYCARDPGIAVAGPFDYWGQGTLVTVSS VL: EIVMTQSPATLSVSPGERATLSCRASQSVSSNLAWYQQKPGQAPRLLIYGAFTRATGIPARFSGSGSGTEFTLTISSLQSEDFAVYYCQQYNHWWTFGQGTKVGIKR"
reported_value = "≤ 65 pM"

[[record]]
binder = "mAb 6.3.1 (antibody, V domains shown, Human hybridoma IgG (XenoMouse); also called x6.3) VH: QVQLVQSGAEVKKPGASVKVSCKASGYTFTGYFMHWVPQAPGQGLEWMGWINPNSGGTNYAQNFQGRVTMTRDTSISTAYMELSRLRSDDTPVYYCARDPWQNWNSYFDYWGQGTLVTVSS VL: DIQMTQSPSSLSASVGDRVTITCRASQSIRSYLNWYQQKPGKAPKVLIYAASSLQSGVPSRFSGSGSGTDFTLTISSLQPEDFATYYCQQSYSTLCSFGQGTKLEIKR"
reported_value = "≤ 73 pM"

